The measured values listed here are drawn from ChEMBL document CHEMBL3507680.

# Method: Human HepG2 cell viability assay in 384 well format
# Format: toxicity, cell-based
# Design: dose 125 nL, time 70.5 hour; concentration not given beside the values
# Condition Description: HepG2 cells, read-out: Inhibition
A collection of compounds and their measured cytotoxicity at 70.5 h
Entry rule: numbers only, all in %.

Recorded results for 5 compounds are shown here.
Cc1nc2c(c(=O)n1C)CN(C(=O)C1CCCN(C3CCCC3)C1)C2 (centres undefined) | 6.1
CCc1noc(CS(=O)(=O)c2cccc(OC)c2)n1 | 4.71
Cc1cc2c(=O)n3c(nc2s1)CCN(C(=O)c1nn(C)cc1Cl)CC3 | -4.02
CCOc1cccc(NC(=O)Cc2cccc(O)c2)n1 | 16.2
Cc1cccc(NS(=O)(=O)c2cnn(C)c2)c1C#N | -12.8

What measured cytotoxicity at 70.5 h goes with `COc1cn(CC(=O)N2CCN(c3ccc(Cl)cc3)CC2)c(C)cc1=O` ?
23.5

Could you tell me which cytotoxicity at 70.5 h is on file for O=C(Cc1cccc(F)c1F)N1CCOC(c2cccc(O)c2)C1 (centres undefined) ?
-2.65

# query: cytotoxicity at 70.5 h of entry `Cc1nn(C)c(C)c1CNC(=O)CCn1ncc2c(Cl)cccc21`
-1.2

Fill in the blank: the reported cytotoxicity at 70.5 h of `CC(C)n1cc(C(=O)NCCCn2ccnc2)c2n[nH]c(=O)c-2c1` is ____.
-6.63

Which cytotoxicity at 70.5 h is listed for `CCn1c(CC2CCN(S(=O)(=O)c3cccs3)CC2)nn(C)c1=O` ?
10.6

----------
# Method: Human HepG2 cell viability assay in 384 well format
# Format: toxicity, cell-based
# Set-up: dose 125 nL, time 70.5 hour; concentration not given beside the values
# Condition Description: HepG2 cells, read-out: Inhibition
cytotoxicity at 70.5 h by entry:
Express your answer as a number followed by its unit.

COCCN1CC[C@H](O)[C@@H]1Cc1ccccc1 | -16.7%
Cc1nc(O)c2nnn(C[C@H]3CCCN3C(=O)CCC3CCCC3)c2n1 | 5.57%
CC(C)(C)CNC(=O)c1ccc(C(=O)O)cc1 | -5.94%

Which cytotoxicity at 70.5 h reading was recorded for the compound CN(C)c1ccccc1C(=O)N1CCOC2(CNCCOC2)C1 (configuration not stated) ?
-2.92%

# cytotoxicity at 70.5 h lookup, item `Cc1ccc(CN2CC[C@@H](NC(=O)c3cccnc3)[C@H](O)C2)o1`
-13.3%

----------
# Method: Human HepG2 cell viability assay in 384 well format
# Format: toxicity, cell-based
# Set-up: dose 125 nL, time 70.5 hour; concentration not given beside the values
# Condition Description: HepG2 cells, read-out: Inhibition
Measured cytotoxicity at 70.5 h accompanies every entry in the list below.
// return numeric value only (unit: %, not printed)

Past entries and their recorded results:
O=C(CCc1nccs1)N1CCN(c2ncccn2)CC1 | -1.61
COCCNc1cc(-c2ccccc2C(=O)O)c2cc[nH]c2n1 | -10.4
CNC(=O)c1ccc(CNCc2ccc(SC)c(OC)c2)cc1 | 27
O[C@H]1CC[C@@H](Cc2cc(-c3ccccn3)on2)O[C@@H]1CNCC1CC1 | -7.3
CN(Cc1cccc(O)c1)C(=O)c1ccc(CCC(C)(C)O)cc1 | 0.182

So what does the record say about cytotoxicity at 70.5 h for `CCc1noc(CC)c1CNC(=O)Nc1ccc2[nH]nnc2c1` ?
-4.16

Sample CC(=O)NC1CCN(c2cc(-c3ccccc3)nc3c(C)c(C)nn23)C1 (centres undefined) — what was its cytotoxicity at 70.5 h?
-2.22

Which cytotoxicity at 70.5 h is listed for Cc1cccc(C(=O)NC(CN2CCCC2=O)c2ccccc2)n1 (centres undefined) ?
0.515

Item under review: `CC(=O)N1CCO[C@@H]2CN(C(=O)c3ccc4ccccc4c3)CC[C@@H]2C1` . Reported cytotoxicity at 70.5 h?
-2.64

Would you mind telling me what cytotoxicity at 70.5 h value was observed for COc1ccc(C(C)N2CCC(OC)CC2)cc1Cl (centres undefined) ?
-5.66

Would you kindly share the measured cytotoxicity at 70.5 h for COCC(=O)N1CCC2(COCc3c(C)nc(N(C)C)nc32)C1 (centres undefined) ?
15.4

GET /values?readout=cytotoxicity at 70.5 h&item= COc1ccc(C2Nc3cc(Cl)ccc3C3=NCCN32)cc1OC (centres undefined)
42.1

State the recorded cytotoxicity at 70.5 h for this entry: O=C(CCN1CCOC(Cn2cccn2)C1)NC1CCCC1 (centres undefined)
17.5

Query (compound): Cc1nc(CN(C)C2CCN(CCc3ccc4c(c3)CCO4)C2)no1 (centres undefined) ; field requested: cytotoxicity at 70.5 h
1.48

Which cytotoxicity at 70.5 h is reported for this compound? Cc1cc2nccc(C3CCCN(C(=O)c4ccccc4F)C3)n2n1 (centres undefined)
-1.93

Record request: cytotoxicity at 70.5 h value, item COc1cc(Cl)c(CN2CCC(C(N)=O)C2)cc1Cl (centres undefined)
4.93

// lookup cytotoxicity at 70.5 h for CCOCC1CN(Cc2cccnc2OC)Cc2cnn(C)c21 (centres undefined)
2.89

What does the data say about its cytotoxicity at 70.5 h? Entry: Cc1ccc(C(CNCc2nccn2C)N2CCOCC2)s1 (centres undefined)
-2.09

Given the entry CN(Cc1coc(-c2ccccc2)n1)C1CCCN(c2cccnn2)C1 (centres undefined) , report its measured cytotoxicity at 70.5 h.
-7.45

Value lookup for cytotoxicity at 70.5 h; key = `c1cncc(-c2ncnc3c2CCN(Cc2ccsc2)CC3)c1`
19.2

Find the recorded cytotoxicity at 70.5 h belonging to COc1ccc(C(C)N(C)Cc2c(C(C)(C)C)[nH]c3ncccc23)cc1 (centres undefined) and report it.
12.9

Using the record for CN(C)c1ccc(NC(=O)N2CCCC2c2ccsc2)cn1 (centres undefined) , report its cytotoxicity at 70.5 h.
-12.1

Give the measured cytotoxicity at 70.5 h of Cc1ccc(N(CCC#N)C(=O)CN2CCCC2c2ccsc2)cc1 (centres undefined) .
0.989

// lookup cytotoxicity at 70.5 h for CCc1nnc2n1CCN(C(=O)C(C)COCc1ccccc1)C2 (centres undefined)
-9.75

----------
# Method: Human HepG2 cell viability assay in 384 well format
# Assay type: toxicity, cell-based
# Design: dose 125 nL, time 70.5 hour; concentration not given beside the values
# Condition Description: HepG2 cells, read-out: Inhibition
Assay Metric: cytotoxicity at 70.5 h (%)
Give just the number in %; leave the unit off.

Cc1ccc(-c2noc(C3CCN3C(=O)c3ccc(=O)[nH]n3)n2)s1 (centres undefined) | -4.22
CCc1cccc(N2CCC(NC(=O)c3ccc(=O)[nH]n3)CC2)c1 | -0.843
CCCOCC(=O)NC1CCc2nc(C)cn2C1 (centres undefined) | -2.67
CN(CCc1cccs1)C(=O)Nc1cccc(S(C)(=O)=O)c1 | -2.36
CC(C)COC(=O)N1CCC2(CCNC2)C1 (centres undefined) | -10.5

Which cytotoxicity at 70.5 h value belongs to CC(CS(C)(=O)=O)N(C(=O)Nc1cc(F)ccc1Cl)C1CC1 (centres undefined) ?
2.35

May I ask what cytotoxicity at 70.5 h has been recorded for `CCCc1nnnn1Cc1cn2c(C)cccc2n1` ?
-2.3

# get_value(readout='cytotoxicity at 70.5 h', item= `COCCN1C[C@H]2CCN(C(=O)Nc3ccccc3C)CC[C@H]2S1(=O)=O` )
-11.5

Which cytotoxicity at 70.5 h value is on record for `CN(C)c1ncnc2c1CCN(Cc1nccs1)CC2` ?
-6.81

For COC(C)(C)CC(C)NCc1nncn1C1CCCCC1 (centres undefined) , what is its reported cytotoxicity at 70.5 h?
-7.83

Can you share its cytotoxicity at 70.5 h? I mean this molecule: `COc1ccc(CN(C)[C@@H]2CN(S(=O)(=O)C(C)C)C[C@H]2O)cc1`
-2.64

What does the data say about its cytotoxicity at 70.5 h? Entry: O=C(C[S+]([O-])Cc1ccccc1F)N1CCc2sccc2C1 (centres undefined)
-7.21

Look up cytotoxicity at 70.5 h for this molecule: COc1ccc(-c2nc(CCNC(=O)NCC3CCOC3)co2)cc1 (centres undefined)
-11.8

Name the reported cytotoxicity at 70.5 h value associated with the molecule `COCc1nn(CC2CC2)c2c1CN(Cc1ccco1)CC2`
-8.39

Look up cytotoxicity at 70.5 h for this molecule: Cc1cncc(C(=O)N2CCNCC2C(=O)NCc2ccncc2)c1 (centres undefined)
-1.53

Tell me the measured cytotoxicity at 70.5 h of `O=C(c1cnco1)N1CCC(Cc2ccc3ncccc3c2)CC1` , please.
5.02

Requested field: cytotoxicity at 70.5 h. Item: Cc1nc(SC2CCN(c3sccc3C#N)C2=O)oc1C (centres undefined)
-1.94

Quick one: cytotoxicity at 70.5 h for `Cc1csc(NC(=O)Cn2nc(C)ccc2=O)n1` ?
-9.42

Looking for the measured cytotoxicity at 70.5 h of Cc1ccc2c(c1)c(CNC(=O)C1CCCN(CC(N)=O)C1)nn2C (centres undefined) , can you help?
-10.2

Entry `Cc1ccc(N2N=C(C(=O)NCC3CC3)S(=O)(=O)c3cccnc32)cc1` has what cytotoxicity at 70.5 h?
-8.14

Entry under review: `N#Cc1c(C2CC2)cc(-c2ccc(O)cc2)nc1N` . Reported cytotoxicity at 70.5 h?
1.29

Given the molecule Cc1cc(CN2CCOC(C)(C(=O)N3CCOCC3)C2)no1 (centres undefined) , what is its reported cytotoxicity at 70.5 h?
-2.61

# input molecule: `CNC(=O)[C@@H]1C[C@@H](N)CN1C(=O)CCSCc1ccc(F)cc1` ; wanted: its cytotoxicity at 70.5 h
7.46

Entry CN1CCN(C(=O)C2CCCN2c2ncnc3ccsc23)CC1 (centres undefined) has what cytotoxicity at 70.5 h?
-11.8
